# ASSAY EXPLANATION: Selectivity index, ratio of IC50 for human MCF-10A to IC50 for human MDA-MB-231 cells
# Format: toxicity
# CONDITION: MCF-10A cells and MDA-MB-231 cells, read-out: Ratio IC50
QUANTITY MEASURED: selectivity ratio
One number for each entry.

Use the examples below as a reference point.
structure=CC(=O)OC[C@H]1O[C@@H](n2cc(Cn3cc(/C=C/C(=O)c4ccccc4)c4ccccc43)nn2)[C@H](OC(C)=O)[C@@H](OC(C)=O)[C@@H]1OC(C)=O quantity_measured="selectivity ratio" data_value=9.08
structure=CC(=O)OC[C@H]1O[C@@H](n2cc(Cn3cc(/C=C/C(=O)c4ccco4)c4cc(Br)ccc43)nn2)[C@H](OC(C)=O)[C@@H](OC(C)=O)[C@H]1OC(C)=O quantity_measured="selectivity ratio" data_value=9.37
structure=CC(=O)OC[C@H]1O[C@@H](n2cc(Cn3cc(/C=C/C(=O)c4ccccc4)c4ccccc43)nn2)[C@H](OC(C)=O)[C@@H](OC(C)=O)[C@H]1OC(C)=O quantity_measured="selectivity ratio" data_value=16.2
structure=CC(=O)OC[C@H]1O[C@@H](n2cc(Cn3cc(/C=C/C(=O)c4ccco4)c4cc(Br)ccc43)nn2)[C@H](OC(C)=O)[C@@H](OC(C)=O)[C@@H]1OC(C)=O quantity_measured="selectivity ratio" data_value=4.29
structure=COc1ccc2c(c1)c(/C=C/C(=O)c1ccccc1)cn2Cc1cn([C@@H]2O[C@H](COC(C)=O)[C@H](OC(C)=O)[C@H](OC(C)=O)[C@H]2OC(C)=O)nn1 quantity_measured="selectivity ratio" data_value=8.57

Then there is this compound:
# selectivity ratio lookup, item CC(=O)OC[C@H]1O[C@@H](n2cc(Cn3cc(/C=C/C(=O)c4ccco4)c4ccccc43)nn2)[C@H](OC(C)=O)[C@@H](OC(C)=O)[C@@H]1OC(C)=O
21.9
